System: HL-60(TB) leukemia
Assay: NCI-60 one-dose screen, 48 h
Settings: 10 µM unless noted
This is part of a sample that, as a whole, favours compounds with a hit. Of some 83,000 tested, about 20% had one in any assay. Activity calls are given as the source filed them. The calls were made as follows: active = growth percent below 10; inactive = the rest.
// allowed return values: active, inactive

Enquiry: Record request — test call for "Nc1nc2c(F)c(F)c(F)c(F)c2s1"
Return: inactive

Enquiry: Short answer needed: outcome of this test for "Clc1ccccc1Nc1nnc(-c2c[nH]c3ccccc23)o1" ?
Return: active

Enquiry: Can you look up the reported call for "Cc1ccc(/C=C/C(=O)c2ccc(NC(=O)CSc3nnc(-c4c[nH]c5ccccc45)n3-c3ccccc3)cc2)cc1" for me?
Return: inactive

Enquiry: Answer briefly: the call reported for "Cc1cc(=O)oc2cc(OCCCCOc3ccc(/C=C/C(=O)Nc4ccccc4[N+](=O)[O-])cc3)ccc12" in this assay.
Return: inactive

Enquiry: Assay outcome for "COC(=O)c1c(C(=O)OC)c2c3ccccc3c3ccccc3n2c1C(=O)C(C)(C)C" : what was it?
Return: inactive

Enquiry: Status in this test for "Cc1cc2nc3c([nH]c2cc1C)c1ccc(=O)cc1n3CCN(C)C" ?
Return: inactive

Enquiry: What did this assay record as the result for "CN(C)CCCc1ccc(Nc2cnn(C)c(=O)c2Cl)cc1" ?
Return: inactive

Enquiry: Each molecule tested received a call. Report the one for CC1=C(C(=O)OC(C)C)C(c2ccc(O)cc2)NC(=S)N1 (configuration not stated) .
Return: inactive

Enquiry: Lab log entry: CC1=NN(C2=NC(=O)C(CC(=O)Nc3ccccc3C(F)(F)F)S2)C(c2ccc(N(C)C)cc2)C1 (configuration not stated) — outcome as called in the assay?
Return: inactive

Enquiry: Which outcome did this test record for the molecule "O=C(N/N=C/c1ccsc1)c1[nH]c2ccc(Br)cc2c1-c1ccccc1" ?
Return: active

Enquiry: What outcome does the record of this test show for "COc1cnc2c(c1)C(=O)c1c-2n(CCCNC(C)C)c(=O)c2cc(OC)c(OC)cc12" ?
Return: inactive

Enquiry: Hello, I am checking results. What call was entered for "COc1ccc(-c2nc3ccccc3n2CC(=O)N=Nc2c(O)[nH]c3ccc(Br)cc23)cc1" ?
Return: inactive

Enquiry: # outcome recorded in this test, key = CCOc1ccccc1[C@H]1C(C(=O)c2ccc(Cl)cc2)C2(N[C@@H]1c1ccccc1)C(=O)Nc1ccccc12 (some centres not stated)
Return: active

Enquiry: Hello, I am checking results. What call was entered for "O=C(Cn1nc(-c2ccccc2)ccc1=O)NN1C(=O)c2ccccc2C1=O" ?
Return: inactive

Enquiry: Which outcome was entered for the molecule "Cc1nc(Nc2nc(C)c3ccc(OCCN4CCOCC4)cc3n2)[nH]c(=O)c1C" in this test?
Return: active

Enquiry: Status in this test for "CN1CCN(Cc2ccc(NC(=O)c3cncc(C#Cc4cnc5ccc(N[C@@H]6CCOC6)nn45)c3)cc2C(F)(F)F)CC1" ?
Return: active

Enquiry: Outcome? CC1=C(C(=O)Nc2ccccc2)C(c2ccc3ccccc3c2)n2c(nc3ccccc32)N1 (configuration not stated)
Return: inactive

Enquiry: Short answer needed: outcome of this test for "CSc1ccccc1NC(=O)c1ccc2nn(/C(C#N)=C/c3ccccn3)nc2c1" ?
Return: active

Enquiry: Field: outcome | Entry: "Nc1nnc(-c2c[nH]c3ncc(Br)cc23)c(-c2c[nH]c3ccc(F)cc23)n1"
Return: active

Enquiry: // return assay outcome for "COc1cc(CNC(=O)/C=C/c2ccc3c(c2)OCO3)ccc1OCc1cn(-c2cccc(C(F)(F)F)c2)nn1"
Return: inactive

Enquiry: Which outcome was entered for the molecule COc1cc(C2CC(c3cc(OC)c(OC)c(OC)c3)=NN2C(C)=O)ccc1OCc1ccccc1 (configuration not stated) in this test?
Return: inactive

Enquiry: Recorded test call requested for "O=C(Cn1c2c(sc1=O)[C@H]1[C@@H](O)[C@@H](O)[C@H](O)[C@@H]1CS2)N1CCOCC1"
Return: inactive

Enquiry: Test call for this molecule, please: CC1CCCCN1CCCNC(=O)N/C(N)=N/c1nc2ccccc2s1 (configuration not stated)
Return: inactive

Enquiry: Give the logged outcome of this assay for the following molecule: "CCCCCCCCCCCCCCCCCCCC(=O)NCCc1c[nH]c2ccc(O)cc12"
Return: inactive

Enquiry: Kindly provide the recorded test outcome for the following molecule: "COc1cc2oc(-c3cccc(C(=O)Nc4ccc(Cl)cc4)c3)cc(=O)c2c(OCC(=O)N[C@@H](Cc2ccccc2)C(=O)O)c1OC"
Return: inactive

Enquiry: Hi, sorry to bother you, what did the test record for "Cc1ccc(CSc2nc(Cl)c(C#N)c(-c3ccc(F)cc3)n2)cc1" ?
Return: inactive

Enquiry: What was the test verdict on "O=C(NC(=S)N1CCN(c2ncnc3c2cnn3-c2ccccc2)CC1)c1ccc(Cl)cc1" ?
Return: inactive

Enquiry: Which outcome was entered for the molecule O=C(c1ccc(Cl)cc1)C1[C@H](c2ccc(Br)cc2)[C@@H](c2ccccc2)NC12C(=O)Nc1ccccc12 (some centres not stated) in this test?
Return: active

Enquiry: Which outcome did this test record for the molecule "COc1ccc(-n2c(SCC(=O)NNS(=O)(=O)c3ccccc3)nc3ccc(Cl)cc3c2=O)cc1" ?
Return: inactive

Enquiry: Look up the recorded call for "CCCCNC(=S)Nc1ccc(OCc2nc3ccc(Cl)cc3[nH]2)cc1" in this test.
Return: inactive

Enquiry: Hi, sorry to bother you, what did the test record for "COc1cc(/C=C/C(=O)c2ccc(S(=O)(=O)NCCNc3nc(Nc4ccc(F)cc4)nc(N(C)C)n3)cc2)cc(OC)c1OC" ?
Return: active

Enquiry: How did this test come out for "COc1ccc(/C=C2\C(=O)Nc3ccc(Cl)cc32)cc1OCc1ccccn1" ?
Return: inactive

Enquiry: For O=C([Se]C1C=CCCC1)c1ccc(C(=O)[Se]C2C=CCCC2)s1 (configuration not stated) , which call appears in the assay record?
Return: active

Enquiry: So what was the verdict on C=C1CC[C@@H]2[C@]3(C)COC(c4cn(-c5ccccc5)nc4-c4cccc([N+](=O)[O-])c4)O[C@@H]3CC[C@@]2(C)[C@@H]1C/C=C1/C(=O)OC[C@H]1O (some centres not stated) in this test?
Return: inactive

Enquiry: What did this assay record as the result for "COc1ccc(C(=O)c2cc(C(C)=O)c3c(C)cc(C)cn23)cc1" ?
Return: inactive

Enquiry: Would you mind telling me which call this test gave "CN1CCN(Cc2ccc(C(=O)Nc3cccc(Nc4ccc5c(O)cccc5n4)c3)cc2C(F)(F)F)CC1" ?
Return: active

Enquiry: What call does the record list for "CN(C)c1nc(NCCNS(=O)(=O)c2ccc(C(=O)/C=C/c3ccc(F)cc3)cc2)nc(N2CCOCC2)n1" ?
Return: active

###

Test system: HCT-116 colon
Assay: NCI-60 one-dose screen, 48 h
Details: 10 µM
The panel holds about 83,000 compounds, 20% with a hit somewhere; the sample as a whole holds those more often. Calls of active or inactive are those of the source. Rule for the calls: active = growth percent below 10; inactive = the rest.
Thanks in advance; please answer with one of these: active, inactive

Enquiry: Which outcome was assigned to "CC[C@]12C=CCN3CC[C@@]4(c5ccc(OC)cc5N(C)[C@H]4[C@@](O)(C(=O)OC)[C@@H]1OC(=O)CCCC[P+](C1CCCCC1)(C1CCCCC1)C1CCCCC1)[C@@H]32" in this test?
Return: active

Enquiry: Could you check what this test reported for "COCCOCCOCCOc1ccc(-n2cc(CCCN(CCNc3ccnc4cc(Cl)ccc34)C(=O)CCC(=O)O[C@@H]3O[C@@H]4OC5(C)CC[C@H]6[C@H](C)CC[C@@H]([C@H]3C)[C@@]46OO5)nn2)cc1" ?
Return: inactive

Enquiry: # outcome recorded in this test, key = "CC12CCC3(CCC(=O)NCCCNc4ccnc5cc(Cl)ccc45)[C@@](C)(OO[C@]3(C)O1)O2"
Return: active

Enquiry: What did the test return for "CC(C)N=C([Se])NC(=O)c1ccccc1" ?
Return: active

Enquiry: Hi, sorry to bother you, what did the test record for "O=C(/C=C/c1ccc(Cl)cc1Cl)c1nc2ccccc2n1Cc1ccc(Br)cc1" ?
Return: inactive

Enquiry: Write down the call the test reported for this molecule. Item: "O=C(NCCCCC(c1ccc(F)cc1)c1ccc(F)cc1)Nc1ccc([N+](=O)[O-])c(C(F)(F)F)c1"
Return: active

Enquiry: Dear colleague, could you share the recorded outcome for "C#CC[Se]C(=O)c1ccc(C(=O)[Se]CC#C)s1" when you have a moment?
Return: inactive

Enquiry: Record request — test call for "COc1ccc2cc([C@H](C)C(=O)[Se]CCC#N)ccc2c1"
Return: active

Enquiry: Hi, sorry to bother you, what did the test record for "COC(=O)C[C@](O)(CCC(C)C)C(=O)O[C@@H]1C(OC)=C[C@]23CCCN2CCc2cc4c(cc2[C@H]13)OCO4" ?
Return: active

###

Tested on: HL-60(TB) leukemia
Test: NCI-60 one-dose screen, 48 h (100 = growth as untreated, 0 = no growth, -100 = all killed)
Details: 10 µM unless noted
This is part of a sample that, as a whole, favours compounds with a hit. Of some 83,000 tested, about 20% had one in any assay.
Quick rule: growth of at least 30% means Criterion met, below that means Criterion not met.

Enquiry: Has "O=C1Nc2cc(-c3ccc(NS(=O)(=O)c4ccc(-c5ccccc5)cc4)cc3)ccc2/C1=C/c1ccc[nH]1" a recorded growth greater than or equal to 30%?
Return: Criterion met

Enquiry: Say whether "O=C(CCN1C(=O)/C(=C/c2ccc(F)cc2)SC1=S)N1CCOCC1" shows growth of 30% or more.
Return: Criterion met

Enquiry: Answer whether growth of "O=C(CSc1nc2ccccc2c(=O)n1-c1ccc(Cl)cc1)Nc1ccc(-c2nc3ccccc3[nH]2)cc1" is greater than or equal to 30%.
Return: Criterion met

Enquiry: Reported growth at or above 30%? "COc1cc(/C=N/NC(=O)c2ccc(OCc3nc4ccc(Cl)cc4[nH]3)cc2)cc(OC)c1OC"
Return: Criterion not met

Enquiry: Could you please find out whether "CCC[Se]C(=O)c1ccc(C(=O)[Se]CCC)s1" has growth that meets 30% or exceeds it?
Return: Criterion not met

Every entry's value here was drawn from PubChem BioAssay (NCI).
